- System: Scirpus juncoides
- Method notes: Test Example 2: herbicidal effect test by treatment during growing period in paddy rice cultivation (seven days after seeding)
- Type: in vivo
- Stated conditions: 120 g/10a active ingredient, assessed 14 days after treatment, dry weight vs untreated area
Reported Herbicidal rate (%) Scirpus juncoides values follow for various molecules
Observable: Herbicidal rate (%) Scirpus juncoides

chem_smiles=Cc1ccc(Cn2oc(=O)c(Cc3ccccc3NS(=O)(=O)C(F)(F)F)c2C)cc1 observable="Herbicidal rate (%) Scirpus juncoides" recorded_measurement=90
chem_smiles=Cc1c(Cc2ccccc2N(S(=O)(=O)C(F)(F)F)S(=O)(=O)C(F)(F)F)c(=O)on1CCc1ccc(F)cc1 observable="Herbicidal rate (%) Scirpus juncoides" recorded_measurement=70
chem_smiles=Cc1c(Cc2ccccc2N(S(=O)(=O)C(F)(F)F)S(=O)(=O)C(F)(F)F)c(=O)on1C(C)C observable="Herbicidal rate (%) Scirpus juncoides" recorded_measurement=80
chem_smiles=Cc1c(Cc2ccccc2NS(=O)(=O)C(F)(F)F)c(=O)on1CCC(C)C observable="Herbicidal rate (%) Scirpus juncoides" recorded_measurement=90

FYI, the data here is from patent US11109593B2.
